Please go through the items and note down their pKi.
# test.target: AdoHcy hydrolase (Bos taurus)
# Construct: AdoHcy hydrolase from cow liver; from tissue; host or cells: cow liver
# Sequence (Q3MHL4 2-432 limits assumed): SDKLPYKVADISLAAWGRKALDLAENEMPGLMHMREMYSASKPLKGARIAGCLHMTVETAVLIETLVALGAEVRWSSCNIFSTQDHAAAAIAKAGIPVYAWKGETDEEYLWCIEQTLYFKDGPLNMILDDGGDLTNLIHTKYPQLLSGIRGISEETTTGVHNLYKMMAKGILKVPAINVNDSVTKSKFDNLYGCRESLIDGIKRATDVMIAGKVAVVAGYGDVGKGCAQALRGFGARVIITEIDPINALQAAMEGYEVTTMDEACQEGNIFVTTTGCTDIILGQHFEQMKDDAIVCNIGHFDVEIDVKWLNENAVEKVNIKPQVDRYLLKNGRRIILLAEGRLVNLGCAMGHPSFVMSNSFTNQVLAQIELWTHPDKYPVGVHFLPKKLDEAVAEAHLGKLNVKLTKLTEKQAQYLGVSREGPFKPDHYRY
# protocol.text: Inhibition of AdoHcy hydrolase from cow liver
# Assay type: biochemical
# experimental.parameters: non-competitive inhibition of AdoHcy hydrolase
pKi (log units): -log10 of the concentration in mol/L.

// pKi lookup, key: "CSC[C@H]1O[C@@H](n2cnc3c(N)ncnc32)[C@@H](O)[C@@H]1O"
3.30

Quick one: pKi of Nc1ncnc2c1ncn2[C@@H]1O[C@H](CNCCC(N)C(=O)O)[C@@H](O)[C@H]1O (some centres unmarked) ?
3.52

---

# System: RSV-BH
# protocol.text: Focus formation (oncogenic transformation) by RSV-BH in chick embryo cells
# Assay type: cell-based
# experimental.parameters: 0.1 mM; added 18 h after infection, counted 7 days later
I'd be grateful if you could share measured No. of Foci for these entries.
When you answer, write just the number.

# get_value(readout='No. of Foci', item= "CC(C)CSC[C@H]1O[C@@H](n2cnc3c(N)nccc32)[C@H](O)[C@@H]1O" )
3

// No. of Foci lookup, key: Nc1nccc2c1ncn2[C@@H]1O[C@H](CSCC[C@H](N)C(=O)O)[C@@H](O)[C@H]1O [3-Deazaadenosylhomocysteine]
276

Would you kindly share the measured No. of Foci for "CSC[C@H]1O[C@@H](n2cnc3c(N)ncnc32)[C@@H](O)[C@@H]1O" ?
298

Suppose we examine the compound Nc1nccc2c1ncn2[C@@H]1O[C@H](CO)[C@@H](O)[C@H]1O [3-Deazaadenosine] ; what No. of Foci value has been reported?
17

---

# System: RSV-BH
# protocol.text: Focus formation (oncogenic transformation) by RSV-BH in chick embryo cells
# Format: cell-based
# experimental.parameters: Gallus gallus; 0.1 mM; added 18 h after infection, counted 7 days later; read-out: % Inhibition of focus formation
experimental.readout: inhibition at 100 µM (%)
Field: numeric (%). Do not append units.

# query: inhibition at 100 µM of entry "CSC[C@H]1O[C@@H](n2cnc3c(N)ncnc32)[C@@H](O)[C@@H]1O"
9

Could you tell me which inhibition at 100 µM is on file for "CC(C)CSC[C@H]1O[C@@H](n2cnc3c(N)nccc32)[C@H](O)[C@@H]1O" ?
99

May I ask what inhibition at 100 µM has been recorded for "Nc1nccc2c1ncn2[C@@H]1O[C@H](CSCC[C@H](N)C(=O)O)[C@@H](O)[C@H]1O" ?
16

Item under review: "Nc1nccc2c1ncn2[C@@H]1O[C@H](CO)[C@@H](O)[C@H]1O" . Reported inhibition at 100 µM?
95

---

# Test system: RSV-BH
# protocol.text: Focus formation (oncogenic transformation) by RSV-BH in chick embryo cells
# Type: cell-based
# experimental.parameters: 0.03 mM; added 18 h after infection, counted 7 days later
So I've got a bunch of compounds here, and I need their No. of Foci values.
Answer as a number with no unit attached.

No. of Foci of "Nc1nccc2c1ncn2[C@@H]1O[C@H](CSCC[C@H](N)C(=O)O)[C@@H](O)[C@H]1O" on RSV-BH?
330

# returns recorded No. of Foci (system: RSV-BH) for "Nc1nccc2c1ncn2[C@@H]1O[C@H](CO)[C@@H](O)[C@H]1O"
106

What measured No. of Foci is associated with "CC(C)CSC[C@H]1O[C@@H](n2cnc3c(N)nccc32)[C@H](O)[C@@H]1O" on RSV-BH?
93

RSV-BH / No. of Foci / "CSC[C@H]1O[C@@H](n2cnc3c(N)ncnc32)[C@@H](O)[C@@H]1O" : value?
274

---

Give measured pIC50 for each item. Keep answers brief.
# test.target: AdoHcy hydrolase (Bos taurus)
# Construct: AdoHcy hydrolase from cow liver; from tissue; host or cells: cow liver
# protocol.text: Inhibition of AdoHcy hydrolase from cow liver
# Format: biochemical
# experimental.parameters: AdoHcy hydrolase from cow liver; read-out: I50
Units for pIC50: none; it is -log10 of a concentration expressed in mol/L.

I'm curious: which pIC50 was measured for Nc1ncnc2c1ncn2[C@@H]1O[C@H](CNCCC(N)C(=O)O)[C@@H](O)[C@H]1O (stereo partly drawn) [Nγ-adenosyl-α,γ-diamino-butyric acid] tested on AdoHcy hydrolase (Bos taurus)?
3.85

Checklist item: pIC50 tested on AdoHcy hydrolase (Bos taurus), entry "CC(C)CSC[C@H]1O[C@@H](n2cnc3c(N)nccc32)[C@H](O)[C@@H]1O" , value?
3.55

So what pIC50 did "CSC[C@H]1O[C@@H](n2cnc3c(N)ncnc32)[C@@H](O)[C@@H]1O" get with AdoHcy hydrolase (Bos taurus)?
3.37
